Source of measurements: patent US7863416B2

// values below are reported Emax
target desc: human ORL1 (Homo sapiens, UniProt P41146)
Construct: expressed in transfected cells; host or cells: CHO cells (G418-selected)
Sequence (P41146 whole entry): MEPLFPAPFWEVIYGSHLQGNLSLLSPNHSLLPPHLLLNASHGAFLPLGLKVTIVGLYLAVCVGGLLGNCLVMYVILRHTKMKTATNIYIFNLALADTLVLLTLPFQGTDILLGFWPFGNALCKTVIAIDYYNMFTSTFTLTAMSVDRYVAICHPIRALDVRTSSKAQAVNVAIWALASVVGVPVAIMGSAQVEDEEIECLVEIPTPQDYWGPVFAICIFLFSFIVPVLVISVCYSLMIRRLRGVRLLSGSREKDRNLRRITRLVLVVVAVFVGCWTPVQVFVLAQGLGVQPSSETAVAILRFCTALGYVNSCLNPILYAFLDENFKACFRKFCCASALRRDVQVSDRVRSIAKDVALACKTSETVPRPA
experiment summary: Stimulation of [35S]GTPγS binding in membranes of CHO cells transfected with human ORL-1
Format: biochemical
assay setup: read-out: % Stimulation ± SEM of [35S]GTPγS binding
Square brackets hold non-standard residues; d marks the D form. Peptide text beside a SMILES is read from it. Phe(4-COOH) = N[C@@H](Cc1ccc(C(=O)O)cc1)C(=O)O; Phe(4-CN) = N#Cc1ccc(C[C@H](N)C(=O)O)cc1

# example entries with known answers
CC(=O)N[C@@H](CCCNC(=N)N)C(=O)N[C@@H](Cc1ccc(C(=O)O)cc1)C(=O)N[C@@H](Cc1ccc(O)cc1)C(=O)N[C@@H](CCCNC(=N)N)C(=O)N[C@@H](Cc1c[nH]c2ccccc12)C(=O)N[C@@H](CCCNC(=N)N)C(N)=O [VII-19-B, Ac-Arg-Phe(4-COOH)-Tyr-Arg-Trp-Arg-NH2] (Ac-R[Phe(4-COOH)]YRWR-NH2)	45.5%
CC(=O)N[C@@H](CCCNC(=N)N)C(=O)N[C@@H](Cc1ccc(C#N)cc1)C(=O)N[C@@H](Cc1ccc(O)cc1)C(=O)N[C@@H](CCCNC(=N)N)C(=O)N[C@@H](Cc1c[nH]c2ccccc12)C(=O)N[C@@H](CCCNC(=N)N)C(N)=O [VII-43-C, Ac-Arg-Phe(4-CN)-Tyr-Arg-Trp-Arg-NH2] (Ac-R[Phe(4-CN)]YRWR-NH2)	49.7%

Could you now consider this next molecule?
The molecule identified as COc1ccc(C[C@H](NC(=O)[C@H](CCCNC(=N)N)NC(C)=O)C(=O)N[C@@H](Cc2ccc(O)cc2)C(=O)N[C@@H](CCCNC(=N)N)C(=O)N[C@@H](Cc2c[nH]c3ccccc23)C(=O)N[C@@H](CCCNC(=N)N)C(N)=O)cc1 [VII-35-C, Ac-Arg-Tyr(4-Me)-Tyr-Arg-Trp-Arg-NH2] (Ac-RY(Me)YRWR-NH2) registered its Emax at 52.1%
